- Tested on: P388
- method description: Inhibitory activity was tested against P388 cells
- Assay type: functional, cell-based
- protocol conditions: Mus musculus
Consider the following molecules; for each one, report its pIC50.
Answers are plain numbers, as −log10 of the molar value.

Examples with answers:
Cc1ccc(/C=C2\CCCc3ccccc3C2=O)cc1	4.93
COc1ccc(/C=C2\CCc3ccccc3C2=O)cc1	4.66
O=C1/C(=C/c2ccc(F)cc2)CCCc2ccccc21	4.95
Cc1cccc(/C=C2\CCCCCC2=O)c1	4.53
O=C1/C(=C/c2cccc(Br)c2)Cc2ccccc21	4.68

Please state, for each entry, its recorded pIC50.
1. O=C1CCCCC/C1=C\c1cccc([N+](=O)[O-])c1
2. O=C1/C(=C/c2ccc(F)cc2)CCc2ccccc21
3. COc1cccc(/C=C2\CCc3ccccc3C2=O)c1
4. COc1ccc(/C=C2\CCCc3ccccc3C2=O)cc1
5. O=C1CCCCC/C1=C\c1ccc(Cl)cc1

1: 4.63; 2: 4.80; 3: 4.75; 4: 5.80; 5: 4.72

Please state, for each entry, its recorded pIC50.
1. O=C1CCCCC/C1=C\c1ccc(Br)cc1
2. O=C1CCCCC/C1=C\c1cccc(Cl)c1

1. 4.77
2. 4.59

Please state, for each entry, its recorded pIC50.
1. O=C1/C(=C/c2ccc(Br)cc2)CCc2ccccc21
2. O=C1/C(=C/c2ccc([N+](=O)[O-])cc2)CCCc2ccccc21
3. O=C1/C(=C/c2ccc(Br)cc2)CCCc2ccccc21
4. O=C1CCCCC/C1=C\c1cccc(Br)c1
5. O=C1/C(=C/c2cccc([N+](=O)[O-])c2)CCCc2ccccc21

1: 4.69; 2: 4.96; 3: 4.73; 4: 4.62; 5: 4.80

Query pIC50 for CN(C)c1ccc(/C=C2\CCc3ccccc3C2=O)cc1
5.28

----------
- Tested on: P388
- method description: Inhibitory activity was tested against P388 cells
- Type: functional, cell-based
- protocol conditions: Mus musculus
pIC50: −log10 of the molar value.
endpoint label: pIC50

O=C1/C(=C/c2ccccc2)Cc2ccccc21	< 4.30
Cc1ccc(/C=C2\CCCCCC2=O)cc1	< 4.30

We now examine a further compound.
Query pIC50 for CN(C)c1ccc(/C=C2\Cc3ccccc3C2=O)cc1
< 4.30

----------
- Test system: MOLT-4
- method description: Average potency against Molt4/C8cells
- Assay type: functional, Homo sapiens
endpoint label: AP (µM)
Numbers only, in µM.

Examples with answers:
COc1cccc(/C=C2\CCCCCC2=O)c1	186
O=C1/C(=C/c2ccc([N+](=O)[O-])cc2)Cc2ccccc21	267
CN(C)c1ccc(/C=C2\CCc3ccccc3C2=O)cc1	158
O=C1CCCCC/C1=C\c1cccc(F)c1	186
O=C1/C(=C/c2cccc(Br)c2)Cc2ccccc21	267

Please state, for each entry, its recorded AP.
1. O=C1/C(=C/c2ccc(F)cc2)CCCc2ccccc21
2. O=C1/C(=C/c2cccc([N+](=O)[O-])c2)CCCc2ccccc21
3. CN(C)c1ccc(/C=C2\CCCCCC2=O)cc1
4. Cc1cccc(/C=C2\CCCCCC2=O)c1
5. COc1ccc(/C=C2\CCCc3ccccc3C2=O)cc1
6. O=C1CCCCC/C1=C\c1cccc(Cl)c1
7. O=C1/C(=C/c2ccc(Br)cc2)Cc2ccccc21
8. O=C1/C(=C/c2cccc(Br)c2)CCCc2ccccc21

[66, 66, 186, 186, 66, 186, 267, 66]

Please state, for each entry, its recorded AP.
1. Cc1cccc(/C=C2\Cc3ccccc3C2=O)c1
2. O=C1/C(=C/c2cccc(Cl)c2)CCCc2ccccc21
3. O=C1/C(=C/c2ccc(F)cc2)CCc2ccccc21
4. Cc1ccc(/C=C2\Cc3ccccc3C2=O)cc1
5. COc1cccc(/C=C2\CCc3ccccc3C2=O)c1
6. O=C1/C(=C/c2cccc(Br)c2)CCc2ccccc21

267
66
158
267
158
158
